Data provenance is ChEMBL document CHEMBL1146177.

- Assay name: DPPH radical scavenging activity
- Format: functional
For each record, write down the corresponding pIC50.
Value format note: pIC50 is -log10 of concentration (mol/L); just state the number.

Ask: Fill in the blank: the reported pIC50 of Cc1c(C)c2c(c(C)c1O)CCC(C)(C(=O)O)O2 (configuration not stated) [TROLOX] is ____.
Result: 4.39

Ask: Fill in the blank: the reported pIC50 of COc1cc(CCCc2c(OC)cc(O)c(OC)c2OC)ccc1O [VISCOLIN] is ____.
Result: 4.31

---

- Assay name: Inhibition of fMLP-induced ROS production in human mononuclear leukocytes
- Type: functional, cell-based
For each record, write down the corresponding pIC50.
Value format note: pIC50 is -log10 of concentration (mol/L); just state the number.

Ask: Fill in the blank: the reported pIC50 of O=c1c(O)c(-c2ccc(O)c(O)c2)oc2cc(O)cc(O)c12 is ____.
Result: 5.40

Ask: Fill in the blank: the reported pIC50 of COc1cc(CCCc2c(OC)cc(O)c(OC)c2OC)ccc1O is ____.
Result: 5.60

---

For each record, write down the corresponding IC50.
- System: BV-2
- Assay name: Inhibition of NADPH oxidase-dependent reactive oxygen species production in mouse BV2 cells
Write down the numeric answer in µM and omit the unit.

Ask: Fill in the blank: the reported IC50 of COc1cc(CCCc2c(OC)cc(O)c(OC)c2OC)ccc1O is ____.
Result: 29.2

Ask: Fill in the blank: the reported IC50 of c1ccc2c(c1)[I+]c1ccccc1-2 is ____.
Result: 10.2
